System: NCI-H358 cells
Assay: Cell proliferation inhibition test (CCK-8)
Format: cell-based
Details: NCI-H358 human non-small cell lung cancer cells, 168 h, read-out: NIH358 cell proliferation inhibition IC50
pIC50: −log10 of the molar value.
parameter: pIC50

INSERT INTO measurements (compoundstructure, valueobserved) VALUES
  ('Cn1c(N2CCC3(CC2)Cc2ccccc2[C@H]3N)nc(N)c(Sc2cccc(C#N)c2Cl)c1=O', 8.82),
  ('Cn1c(N2CCC3(CC2)Cc2ccccc2[C@H]3N)nc(N)c(Sc2cccnc2C(F)(F)F)c1=O', 8.80),
  ('Nc1nc(N2CCC3(CC2)Oc2ccccc2[C@H]3N)cnc1Sc1ccnc(N)c1Cl', 7.74),
  ('Nc1nccc(Sc2cnc(N3CCC4(CC3)Oc3ccccc3[C@H]4N)n3ccnc23)c1F', 7.78),
  ('Cc1ncccc1Sc1c(N)nc(N2CCC3(CC2)Cc2ccccc2[C@H]3N)n(C)c1=O', 8.55),
  ('Cn1c(N2CCC3(CC2)Cc2ccccc2[C@H]3N)nc(N)c(Sc2ccc(N)nc2Cl)c1=O', 8.25),
  ('Nc1nccc(Sc2cnc(N3CCC4(CC3)Cc3ncccc3[C@H]4N)n3ccnc23)c1Cl', 8.07),
  ('Cn1c(N2CCC3(CC2)Cc2ccccc2[C@H]3N)nc(N)c(Sc2ccnc(N)c2Cl)c1=O', 8.48);

----------
# maps each entry to its Cmax
Assay: Pharmacokinetic experiment in mice
Format: in vivo
Conditions: mouse, po; male BALB/c mice, I.G., 10 mg/kg, plasma
parameter: Cmax

INSERT INTO assay_data (compoundstructure, valueobserved) VALUES
  ('Nc1nccc(Sc2cnc(N3CCC4(CC3)Oc3ccccc3[C@H]4N)n3ccnc23)c1Cl', '1590 ng/mL'),
  ('Cn1c(N2CCC3(CC2)Oc2ccccc2[C@H]3N)nc(N)c(Sc2cccnc2C(F)(F)F)c1=O', '1390 ng/mL'),
  ('Cc1nc(N2CCC3(CC2)Oc2ccccc2[C@H]3N)n2ccnc2c1-c1cccc(Cl)c1Cl', '1890 ng/mL');

----------
Test: Pharmacokinetic experiment in mice
Type: in vivo
Details: mouse, plasma, po; male BALB/c mice, I.G. 10 mg/kg vs IV 1 mg/kg; read-out: bioavailability F
parameter: bioavailability (%)

INSERT INTO results (compoundstructure, parameter, valueobserved) VALUES
  ('Cn1c(N2CCC3(CC2)Oc2ccccc2[C@H]3N)nc(N)c(Sc2cccnc2C(F)(F)F)c1=O', 'bioavailability', 74.3),
  ('Cc1nc(N2CCC3(CC2)Oc2ccccc2[C@H]3N)n2ccnc2c1-c1cccc(Cl)c1Cl', 'bioavailability', 81.2),
  ('Nc1nccc(Sc2cnc(N3CCC4(CC3)Oc3ccccc3[C@H]4N)n3ccnc23)c1Cl', 'bioavailability', 78.3);

----------
Assay: Pharmacokinetic experiment in mice
Format: in vivo
Conditions: mouse, plasma, oral; male BALB/c mice, I.G. 10 mg/kg vs IV 1 mg/kg; read-out: bioavailability F
parameter: bioavailability (%)

INSERT INTO measurements (compoundstructure, parameter, valueobserved) VALUES
  ('Nc1nc(N2CCC3(CC2)Oc2ccccc2[C@H]3N)cnc1Sc1ccnc(N)c1Cl', 'bioavailability', 51.2);

----------
System: NCI-H358 cells
Experiment: Cell proliferation inhibition test (CCK-8)
Format: cell-based
Conditions: NCI-H358 human non-small cell lung cancer cells, 168 h, read-out: NIH358 cell proliferation inhibition IC50
pIC50: −log10 of the molar value.
# maps each entry to its pIC50
parameter: pIC50

INSERT INTO assay_data (compoundstructure, valueobserved) VALUES
  ('Cn1c(N2CCC3(CC2)Oc2ccccc2[C@H]3N)nc2n[nH]c(-c3ccnc(NC4CC4)c3Cl)c2c1=O', 8.22),
  ('COc1cccc(-c2c(C)nc(N3CCC4(CC3)Oc3ccccc3[C@H]4N)n3ccnc23)c1Cl', 7.88),
  ('Nc1nccc(Sc2cnc(N3CCC4(CC3)Oc3ccccc3[C@H]4N)n3ccnc23)c1Cl', 8.41),
  ('Cn1c(N2CCC3(CC2)Oc2ccccc2[C@H]3N)nc(N)c(Sc2cccnc2C(F)(F)F)c1=O', 8.31),
  ('Cc1nc(N2CCC3(CC2)Oc2ccccc2[C@H]3N)n2ccnc2c1-c1cccc(Cl)c1Cl', 7.92);

This collection of values is drawn from patent US20230002355A1.
